Molecular target: T1, Full-length STAT1 protein (unphosphorylated) (human, UniProt P42224 1-750)
T1 construct: also called U-STAT1; pEXP-nHis-STAT1
T1 sequence (looked up): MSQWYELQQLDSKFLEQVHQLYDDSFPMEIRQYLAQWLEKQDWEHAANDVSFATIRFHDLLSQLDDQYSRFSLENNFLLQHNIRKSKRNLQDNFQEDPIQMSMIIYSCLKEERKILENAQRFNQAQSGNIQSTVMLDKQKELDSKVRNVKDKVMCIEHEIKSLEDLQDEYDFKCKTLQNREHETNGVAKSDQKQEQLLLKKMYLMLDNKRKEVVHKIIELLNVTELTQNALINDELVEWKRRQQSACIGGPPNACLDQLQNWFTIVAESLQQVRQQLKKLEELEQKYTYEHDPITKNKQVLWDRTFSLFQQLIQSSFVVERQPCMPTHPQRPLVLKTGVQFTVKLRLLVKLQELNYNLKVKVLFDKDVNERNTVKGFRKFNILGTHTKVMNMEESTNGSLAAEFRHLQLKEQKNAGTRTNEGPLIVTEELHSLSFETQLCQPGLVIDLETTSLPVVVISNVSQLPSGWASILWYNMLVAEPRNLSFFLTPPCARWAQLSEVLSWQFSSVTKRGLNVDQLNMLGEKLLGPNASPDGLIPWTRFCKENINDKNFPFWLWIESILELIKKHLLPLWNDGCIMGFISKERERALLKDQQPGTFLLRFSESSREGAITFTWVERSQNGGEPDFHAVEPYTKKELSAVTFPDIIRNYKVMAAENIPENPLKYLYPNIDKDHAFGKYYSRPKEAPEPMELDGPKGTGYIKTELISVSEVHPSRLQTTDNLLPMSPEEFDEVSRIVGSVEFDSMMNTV
Assay: ITC
Details: both partners purified
Where no end group is shown, it is not given here.
Reported values of Kd for individual entries
recorded.endpoint: Kd (nM)

binder	recorded.endpoint	bound.operator	measurement
MWSVFIHGHDGSNKGSKTYTS (also: phospho, position not given here) [018 phospho 21-mer peptide]	Kd	=	174
GB1-018 (natural protein) MSSKGGSSGGMWSVFIHGHDGSNKGSKTYTSGGGGMWGGGSSSGVKSGVNGGVKSGTGKI	Kd	=	291
MWSVFIHGHDGSNKGSKTYTS (domain or fragment) [GB1-018^T2]	Kd	=	235
MWSVFIHGHDGSNKGSK (domain or fragment) [GB1-018^T3]	Kd	>	10000
MWSVFIHGHDGSNKGSKTYTS [018 21-mer peptide]	Kd	=	321
